Assay: Volume of distribution at steady state in overnight fasted Sprague-Dawley rat plasma at 1 mg/kg, iv up to 24 hrs by LC-MS/MS analysis
Assay type: ADME, organism-based
Conditions: read-out: Vdss
endpoint.name: Vd (L/kg)
Answer with a number only, understood to be in L/kg.

GET /values?readout=Vd&item= Cc1cc(Nc2ncc3ncc(=O)n(-c4ccc(N)cc4)c3n2)ccc1N1CCN(C)CC1
27.7

* * *

Experiment: Half life in overnight fasted Sprague-Dawley rat plasma at 1 mg/kg, iv up to 24 hrs by LC-MS/MS analysis
Format: ADME, organism-based
endpoint.name: half-life (h)
Answer with a number only, understood to be in h.

GET /values?readout=half-life&item= Cc1cc(Nc2ncc3ncc(=O)n(-c4ccc(N)cc4)c3n2)ccc1N1CCN(C)CC1
3.11

* * *

Molecular target: Receptor-type tyrosine-protein kinase FLT3 (Homo sapiens, UniProt P36888, D835V/ITD)
Assay: Binding affinity to human partial length FLT3 ITD/D835V mutant expressed in mammalian expression system after 1 hr
endpoint.name: pKd
Scale note: pKd = -log10(concentration in M).

GET /values?readout=pKd&item= Cc1cc(Nc2ncc3ncc(=O)n(-c4ccc(N)cc4)c3n2)ccc1N1CCN(C)CC1
9.10

* * *

Test: Cmax in overnight fasted Sprague-Dawley rat plasma at 1 mg/kg, iv up to 24 hrs by LC-MS/MS analysis
Type: ADME, organism-based
Parameters: dose 1 mg/kg, route intravenous
endpoint.name: Cmax
Give the figure together with its unit, number first.

GET /values?readout=Cmax&item= Cc1cc(Nc2ncc3ncc(=O)n(-c4ccc(N)cc4)c3n2)ccc1N1CCN(C)CC1
55.2 ng/mL

* * *

Test system: A549
Assay: Antiproliferative activity against human A549 cells after 72 hrs by SRB assay
Assay type: functional, cell-based
Conditions: A549, 72 h
endpoint.name: IC50

GET /values?readout=IC50&item= Cc1cc(Nc2ncc3ncc(=O)n(-c4ccc(N)cc4)c3n2)ccc1N1CCN(C)CC1
> 10 µM

* * *

Biological target: Receptor-type tyrosine-protein kinase FLT3 (Homo sapiens, UniProt P36888)
Assay: Binding affinity to human partial length wild type FLT3 (592 to 969 residues) expressed in bacterial expression system after 1 hr
endpoint.name: Kd

GET /values?readout=Kd&item= Cc1cc(Nc2ncc3ncc(=O)n(-c4ccc(N)cc4)c3n2)ccc1N1CCN(C)CC1
5 nM

* * *

System: NCI-H187
Test: Antiproliferative activity against human NCI-H187 cells after 72 hrs by MTT assay
Assay type: functional, cell-based
Details: NCI-H187, 72 h
endpoint.name: IC50

I'm curious: which IC50 was measured for Cc1cc(Nc2ncc3ncc(=O)n(-c4ccc(N)cc4)c3n2)ccc1N1CCN(C)CC1 tested on NCI-H187?
> 10 µM

* * *

Molecular target: Receptor-type tyrosine-protein kinase FLT3 (Homo sapiens)
Test: Binding affinity to auto-inhibited human partial length wild type FLT3 (564 to 969 residues) expressed in mammalian expression system after 1 hr
endpoint.name: Kd

GET /values?readout=Kd&item= Cc1cc(Nc2ncc3ncc(=O)n(-c4ccc(N)cc4)c3n2)ccc1N1CCN(C)CC1
79 nM
